This collection of values is drawn from patent US20060035966A1.

Test system: TCCSUP bladder cancer cell line
Run description: Cytotoxicity, SRB assay, TCCSUP
Format: cell-based, human
Assay setup: Table 2B, Example 1; read-out: IC50 TCCSUP
Property: IC50 (µM)
Respond with the bare value in µM.

Ask: Could you share which IC50 value was measured for O=c1[nH]cc(F)c(=O)[nH]1 [Compound 5-FU, reference compound] ?
Result: 3.6

====

System: AR-expressing LNCaP prostate cancer cell line
Run description: Cytotoxicity, SRB assay, LNCaP
Format: cell-based, human
Assay setup: Homo sapiens, LNCaP, read-out: IC50 LNCaP
Description: The SRB Assay was used to determine cell number during cytotoxocity experiments. The following protocol was used: • 1. […] Experimental cultures were cultured in 96-well microtiter plates (200 uL growth medium per well; 1,000-200,000 cells per well). • 3. Cultures were fixed with 50 uL 50% TCA (4° C.). […] Absorbance was read at 540 nm. • * quickly performing rinsing process is to prevent desorption of protein-bound SRB • ** completely remove residual wash solution by sharply flicking plates over sink. […]
pIC50: −log10 of the molar value.
Outcome label depends on pIC50 relative to 5: at/above gives 1 (yes), below gives 0 (no).

* CC(=O)O[C@H]1C(=O)[C@@]2(C)[C@H]([C@H](OC(=O)c3ccccc3)[C@]3(O)C[C@H](OC(=O)[C@H](O)[C@@H](NC(=O)c4ccccc4)c4ccccc4)C(C)=C1C3(C)C)[C@]1(OC(C)=O)CO[C@@H]1C[C@@H]2O [Taxol, reference compound] | 1 (yes)

Ask: Can C[C@](O)(CSc1ccc(NC(=O)CCl)cc1)C(=O)Nc1ccc(C#N)c(C(F)(F)F)c1 [R-CTF-T-CA-1] be said to have pIC50 at or above 5?
Result: 1 (yes)

Ask: API: above_or_equal(metric=pIC50, cutoff=5) for item C[C@](O)(CSc1ccc(NC(=O)CBr)cc1)C(=O)Nc1ccc(C#N)c(C(F)(F)F)c1 [R-CTF-T-BA-1]
Result: 1 (yes)

Ask: Could you please find out whether C[C@@](O)(CBr)C(=O)Nc1ccc([N+](=O)[O-])c(C(F)(F)F)c1 [S-NTBA] has pIC50 that meets 5 or exceeds it?
Result: 1 (yes)

Ask: Could you tell me if the measured pIC50 of C[C@](O)(COc1ccc(N=C=S)cc1)C(=O)Nc1ccc([N+](=O)[O-])c(C(F)(F)F)c1 [Compound V] reaches 5 or more?
Result: 0 (no)

====

System: CV-1 control cell line
Run description: Cytotoxicity, SRB assay, CV-1 control
Type: cell-based, African green monkey
Assay setup: Chlorocebus sabaeus, 24 h, read-out: IC50 CV-1
Property: pIC50
Please treat pIC50 as minus the base-10 logarithm of the molar concentration.

* C[C@](O)(COc1ccc(NC(=O)CCl)cc1)C(=O)Nc1ccc([N+](=O)[O-])c(C(F)(F)F)c1 [DJ 1-31] | 5.24

Switching to the query record.
Ask: Would you mind telling me what pIC50 value was observed for C[C@](O)(COc1ccc(NC(=O)CBr)cc1)C(=O)Nc1ccc([N+](=O)[O-])c(C(F)(F)F)c1 [DJ 1-29] ?
Result: 5.17

====

Tested on: AR-expressing LNCaP prostate cancer cell line
Run description: Cytotoxicity, SRB assay, LNCaP
Type: cell-based, human
Assay setup: Homo sapiens, LNCaP, 24 h, read-out: IC50 LNCaP 24 hr treatment
Property: IC50
Give the number first and the unit second.

Please review the following examples before continuing.
* C[C@](O)(CSc1ccc(NC(=O)CBr)cc1)C(=O)Nc1ccc(C#N)c(C(F)(F)F)c1 [R-CTF-T-BA-1] | 11.2 µM
* C[C@](O)(COc1ccc(N=C=S)cc1)C(=O)Nc1ccc([N+](=O)[O-])c(C(F)(F)F)c1 [Compound V] | 39.6 µM
* C[C@](O)(CSc1ccc(NC(=O)CCl)cc1)C(=O)Nc1ccc(C#N)c(C(F)(F)F)c1 [R-CTF-T-CA-1] | 3.5 µM

The record that follows has no IC50 shown yet.
Ask: What does the data say about its IC50? Entry: C[C@@](O)(CBr)C(=O)Nc1ccc([N+](=O)[O-])c(C(F)(F)F)c1 [S-NTBA]
Result: 4.4 µM
